Target: T1, recombinant human ROR1 extracellular domain protein (human, UniProt Q01973 30-406)
T1 construct: extracellular domain; Analyte in solution in the Octet assay; also called human ROR1 ECD
T1 sequence (Q01973 30-406): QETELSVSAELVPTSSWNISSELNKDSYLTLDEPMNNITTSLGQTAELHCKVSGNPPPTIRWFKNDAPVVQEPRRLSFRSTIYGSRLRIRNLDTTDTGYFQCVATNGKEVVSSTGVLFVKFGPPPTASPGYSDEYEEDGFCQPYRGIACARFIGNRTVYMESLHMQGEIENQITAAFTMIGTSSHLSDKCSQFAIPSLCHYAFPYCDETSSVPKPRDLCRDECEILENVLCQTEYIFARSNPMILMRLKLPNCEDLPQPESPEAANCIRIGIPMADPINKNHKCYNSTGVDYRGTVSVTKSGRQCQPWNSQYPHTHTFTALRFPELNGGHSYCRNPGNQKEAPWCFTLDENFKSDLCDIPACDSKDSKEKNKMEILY
Experiment: Octet, monovalent binding to human ROR1
Measured parameter: koff (s⁻¹)
Give just the numeric value; s⁻¹ need not be written.

Examples with their reported koff follow.
{"Binder": "338H4 humanized antibody (antibody, human IgG1, kappa, V domains shown, Human gamma-1 and human kappa constant domains) VH: EVQLVESGGGLVQPGGSLRLSCTASGFSLSSYAMSWVRQAPGRGLEWIGIIYASGSTYYASSAKGRFTISKDNTKNTVDLQMNSLRAEDTAVYYCARIYDGMDLWGQGTLVTVSS VL: DIQMTQSPSSLSASVGDRVTINCQASQNIYSYLSWYQQKPGKVPKRLIYLASTLASGVPSRFSGSGSGTDYTLTISSLQPEDVATYYCQSNYNGNYGFGGGTKVEIKR", "koff, s⁻¹": 0.00238}
{"Binder": "323H7 humanized antibody (antibody, human IgG1, kappa, V domains shown, Human gamma-1 and human kappa constant domains) VH: EVQLLESGGGLVQPGGSLRLSCAASGFTISRYHMTWVRQAPGKGLEWIGHIYVNNDDTDYASSAKGRFTISRDNSKNTLYLQMNSLRAEDTATYFCARLDVGGGGAYIGDIWGQGTLVTVSS VL: DIQMTQSPSSLSASVGDRVTITCQSSQSVYNNNDLAWYQQKPGKVPKLLIYYASTLASGVPSRFSGSGSGTDFTLTISSLQPEDVATYYCAGGYDTDGLDTFAFGGGTKVEIKR", "koff, s⁻¹": 0.0007}

Next:
Complete the entry with koff for 324E2 humanized antibody (antibody, human IgG1, kappa, V domains shown, Human gamma-1 and human kappa constant domains) VH: QSVEESGGGLVQPGGSLRLSCTASGFSLSNNAITWVRQAPGKGLEYIGIISSSGTTYYASSAKGRFTISKDTSKNTVDLQMNSLRAEDTAVYYCAGAFSVWGQGTLVTVSS VL: DIQMTQSPSSLSASVGDRVTITCQSSQSVNNNDLAWYQQKPGKAPKRLIYWASKLASGVPSRFSGSGSGTEFTLTISNLQPEDFATYYCAGGYSGNIYGFGGGTKVEIKR
0.0061
